- test target: Casein kinase II (Homo sapiens) (UniProt P67870+P68400+P19784)
- test details: Inhibition of CK2 (unknown origin) assessed as residual enzyme activity at 10 uM using RRRDDDSDDD substrate peptide
- Format: protein-complex assay
Property: Activity; scope: individual compounds
measured parameter: Activity (%)

{"compound": "CCCCOc1ccc(C2C(C(=O)c3ccc4c(c3)OCCO4)=C(O)C(=O)N2c2nc3ccc(C)cc3s2)cc1 (stereo not given)", "unit abbrev": "%", "data value": 85.6}
{"compound": "CCCCCOc1ccc(C2C(C(=O)c3ccc4c(c3)CC(C)O4)=C(O)C(=O)N2c2nc3ccc(F)cc3s2)cc1 (stereo not given)", "unit abbrev": "%", "data value": 92.6}
{"compound": "CCCCOc1ccc(C2C(C(=O)c3ccc4c(c3)OCCO4)=C(O)C(=O)N2c2nc3ccc(Cl)cc3s2)cc1OCC (stereo not given)", "unit abbrev": "%", "data value": 89.7}
{"compound": "CCCOc1ccc(C2C(C(=O)c3ccc4c(c3)OCCO4)=C(O)C(=O)N2c2nc3ccc(C)cc3s2)cc1 (stereo not given)", "unit abbrev": "%", "data value": 81.8}
{"compound": "CC(C)CCOc1cccc(C2C(C(=O)c3ccc4c(c3)CC(C)O4)=C(O)C(=O)N2c2nc3ccc(F)cc3s2)c1 (stereo not given)", "unit abbrev": "%", "data value": 83.4}
{"compound": "Cc1ccc(C(=O)C2=C(O)C(=O)N(c3nc4ccc(F)cc4s3)C2c2ccc(C(C)(C)C)cc2)o1 (stereo not given)", "unit abbrev": "%", "data value": 68.3}
{"compound": "CCOc1ccc2nc(N3C(=O)C(O)=C(C(=O)c4ccc(C)cc4)C3c3ccc(C(C)(C)C)cc3)sc2c1 (stereo not given)", "unit abbrev": "%", "data value": 97.8}
{"compound": "CC(C)(C)c1ccc(C2C(C(=O)c3ccc4c(c3)OCCO4)=C(O)C(=O)N2c2nc3ccc(Cl)cc3s2)cc1 (stereo not given)", "unit abbrev": "%", "data value": 83.6}
{"compound": "COc1ccc2nc(N3C(=O)C(O)=C(C(=O)c4ccco4)C3c3ccc(Cl)cc3)sc2c1 (stereo not given)", "unit abbrev": "%", "data value": 73.9}
{"compound": "CCOc1ccc2nc(N3C(=O)C(O)=C(C(=O)c4ccccc4)C3c3ccc(Cl)cc3)sc2c1 (stereo not given)", "unit abbrev": "%", "data value": 79.3}

###

- test target: Casein kinase II (Homo sapiens) (UniProt P67870+P68400+P19784)
- test details: Inhibition of CK2 (unknown origin) assessed as residual enzyme activity at 10 uM using RRRDDDSDDD substrate peptide
- Type: protein-complex assay
Property: Activity; scope: individual molecules
measured parameter: Activity (%)

{"molecule": "CCCCOc1ccc(C2C(C(=O)c3ccc4c(c3)OCCO4)=C(O)C(=O)N2c2nc3ccc(Cl)cc3s2)cc1 (centres undefined)", "measured parameter": "Activity", "data value": 99.3}
{"molecule": "CCCCCOc1ccc(C2C(C(=O)c3ccc4c(c3)OCCO4)=C(O)C(=O)N2c2nc3ccc(C)cc3s2)cc1 (centres undefined)", "measured parameter": "Activity", "data value": 90}
{"molecule": "CCOc1ccc2nc(N3C(=O)C(O)=C(C(=O)c4cccs4)C3c3ccc(C)cc3)sc2c1 (centres undefined)", "measured parameter": "Activity", "data value": 79.9}
{"molecule": "O=C(C1=C(O)C(=O)N(c2nc3ccc(F)cc3s2)C1c1cccc(Cl)c1)c1cccs1 (centres undefined)", "measured parameter": "Activity", "data value": 71.5}

###

- test target: Fibroblast growth factor receptor 1 (Homo sapiens)
- test details: Inhibition of FGFR1 (unknown origin) assessed as residual enzyme activity at 10 uM using IGF-IRtide (12 to 527) substrate
Property: Activity; scope: individual compounds

{"compound": "Cc1ccc(C(=O)C2=C(O)C(=O)N(c3nc4ccc(F)cc4s3)C2c2ccc(C(C)(C)C)cc2)o1 (stereo not given)", "Activity [%]": 92.7}
{"compound": "CCOc1ccc2nc(N3C(=O)C(O)=C(C(=O)c4cccs4)C3c3ccc(C)cc3)sc2c1 (stereo not given)", "Activity [%]": 88.7}
{"compound": "CCOc1ccc2nc(N3C(=O)C(O)=C(C(=O)c4ccccc4)C3c3ccc(Cl)cc3)sc2c1 (stereo not given)", "Activity [%]": 65.7}
{"compound": "COc1ccc2nc(N3C(=O)C(O)=C(C(=O)c4ccco4)C3c3ccc(Cl)cc3)sc2c1 (stereo not given)", "Activity [%]": 46.4}
{"compound": "CCCCOc1ccc(C2C(C(=O)c3ccc4c(c3)OCCO4)=C(O)C(=O)N2c2nc3ccc(Cl)cc3s2)cc1 (stereo not given)", "Activity [%]": 36.2}

###

- test target: Mitogen-activated protein kinase kinase kinase 5 (Homo sapiens) (UniProt Q99683)
- Sequence (Q99683 whole entry): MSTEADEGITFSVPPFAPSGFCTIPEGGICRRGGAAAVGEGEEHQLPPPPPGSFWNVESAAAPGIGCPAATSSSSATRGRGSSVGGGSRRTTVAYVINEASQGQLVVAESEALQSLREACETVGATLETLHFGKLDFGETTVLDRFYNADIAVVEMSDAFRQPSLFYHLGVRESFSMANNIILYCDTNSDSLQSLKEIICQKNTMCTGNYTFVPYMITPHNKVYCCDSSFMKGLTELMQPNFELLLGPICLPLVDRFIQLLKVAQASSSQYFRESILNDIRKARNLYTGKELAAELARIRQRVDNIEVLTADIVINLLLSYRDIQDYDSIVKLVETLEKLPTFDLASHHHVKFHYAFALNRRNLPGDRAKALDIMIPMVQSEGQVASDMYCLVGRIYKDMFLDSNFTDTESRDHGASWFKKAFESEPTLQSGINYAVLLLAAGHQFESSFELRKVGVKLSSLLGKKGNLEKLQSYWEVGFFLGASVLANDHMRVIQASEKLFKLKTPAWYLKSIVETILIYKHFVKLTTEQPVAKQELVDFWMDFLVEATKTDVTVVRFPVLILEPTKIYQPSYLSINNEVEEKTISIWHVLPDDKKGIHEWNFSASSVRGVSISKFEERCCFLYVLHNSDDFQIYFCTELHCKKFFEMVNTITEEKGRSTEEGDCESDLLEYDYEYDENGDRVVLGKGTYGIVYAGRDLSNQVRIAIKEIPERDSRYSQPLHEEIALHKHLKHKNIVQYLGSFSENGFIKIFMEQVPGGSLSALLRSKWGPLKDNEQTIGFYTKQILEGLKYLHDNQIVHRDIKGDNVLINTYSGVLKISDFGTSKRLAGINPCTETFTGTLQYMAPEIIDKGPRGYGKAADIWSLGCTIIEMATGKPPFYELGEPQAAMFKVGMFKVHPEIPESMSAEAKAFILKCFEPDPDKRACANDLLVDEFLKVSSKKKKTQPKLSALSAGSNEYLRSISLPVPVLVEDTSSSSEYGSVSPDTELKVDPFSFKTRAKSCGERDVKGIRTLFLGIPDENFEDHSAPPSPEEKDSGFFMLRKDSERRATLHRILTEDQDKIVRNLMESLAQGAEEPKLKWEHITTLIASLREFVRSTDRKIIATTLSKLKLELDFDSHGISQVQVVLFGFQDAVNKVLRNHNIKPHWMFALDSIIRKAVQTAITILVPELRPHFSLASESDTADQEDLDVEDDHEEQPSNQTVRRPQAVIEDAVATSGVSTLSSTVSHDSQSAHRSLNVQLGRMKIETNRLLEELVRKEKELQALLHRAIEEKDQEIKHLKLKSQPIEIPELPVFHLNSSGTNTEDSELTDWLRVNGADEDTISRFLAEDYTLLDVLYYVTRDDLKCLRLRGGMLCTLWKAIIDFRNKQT
- test details: Inhibition of recombinant ASK1 catalytic subunit (unknown origin) assessed as residual enzyme activity at 10 uM using MBP substrate and gamma-labeled 32P ATP incubated for 20 mins by liquid scintillation counting method

{"compound": "CCCCCOc1ccc(C2C(C(=O)c3ccc4c(c3)CC(C)O4)=C(O)C(=O)N2c2nc3ccc(F)cc3s2)cc1 (centres undefined)", "Activity / %": 18.1}
{"compound": "CCCOc1ccc(C2C(C(=O)c3ccc4c(c3)OCCO4)=C(O)C(=O)N2c2nc3ccc(C)cc3s2)cc1 (centres undefined)", "Activity / %": 43}
{"compound": "CC(C)(C)c1ccc(C2C(C(=O)c3ccc4c(c3)OCCO4)=C(O)C(=O)N2c2nc3ccc(Cl)cc3s2)cc1 (centres undefined)", "Activity / %": 12.3}
{"compound": "COc1ccc2nc(N3C(=O)C(O)=C(C(=O)c4ccco4)C3c3ccc(Cl)cc3)sc2c1 (centres undefined)", "Activity / %": 39.1}
{"compound": "O=C(C1=C(O)C(=O)N(c2nc3ccc(F)cc3s2)C1c1cccc(Cl)c1)c1cccs1 (centres undefined)", "Activity / %": 27.6}
{"compound": "CCCCOc1ccc(C2C(C(=O)c3ccc4c(c3)OCCO4)=C(O)C(=O)N2c2nc3ccc(Cl)cc3s2)cc1OCC (centres undefined)", "Activity / %": 19.7}
{"compound": "CCCCCOc1ccc(C2C(C(=O)c3ccc4c(c3)OCCO4)=C(O)C(=O)N2c2nc3ccc(C)cc3s2)cc1 (centres undefined)", "Activity / %": 13.2}
{"compound": "CCOc1ccc2nc(N3C(=O)C(O)=C(C(=O)c4cccs4)C3c3ccc(C)cc3)sc2c1 (centres undefined)", "Activity / %": 27}
{"compound": "CCCCOc1ccc(C2C(C(=O)c3ccc4c(c3)OCCO4)=C(O)C(=O)N2c2nc3ccc(C)cc3s2)cc1 (centres undefined)", "Activity / %": 19.8}
{"compound": "CC(C)CCOc1cccc(C2C(C(=O)c3ccc4c(c3)CC(C)O4)=C(O)C(=O)N2c2nc3ccc(F)cc3s2)c1 (centres undefined)", "Activity / %": 14}
{"compound": "CCCCOc1ccc(C2C(C(=O)c3ccc4c(c3)OCCO4)=C(O)C(=O)N2c2nc3ccc(Cl)cc3s2)cc1 (centres undefined)", "Activity / %": 15.8}
{"compound": "Cc1ccc(C(=O)C2=C(O)C(=O)N(c3nc4ccc(F)cc4s3)C2c2ccc(C(C)(C)C)cc2)o1 (centres undefined)", "Activity / %": 32.6}
{"compound": "CCOc1ccc2nc(N3C(=O)C(O)=C(C(=O)c4ccc(C)cc4)C3c3ccc(C(C)(C)C)cc3)sc2c1 (centres undefined)", "Activity / %": 23.5}
{"compound": "CCOc1ccc2nc(N3C(=O)C(O)=C(C(=O)c4ccccc4)C3c3ccc(Cl)cc3)sc2c1 (centres undefined)", "Activity / %": 16.2}

###

- test target: Fibroblast growth factor receptor 1 (Homo sapiens) (UniProt P11362)
- Sequence (P11362 22-822 limits assumed): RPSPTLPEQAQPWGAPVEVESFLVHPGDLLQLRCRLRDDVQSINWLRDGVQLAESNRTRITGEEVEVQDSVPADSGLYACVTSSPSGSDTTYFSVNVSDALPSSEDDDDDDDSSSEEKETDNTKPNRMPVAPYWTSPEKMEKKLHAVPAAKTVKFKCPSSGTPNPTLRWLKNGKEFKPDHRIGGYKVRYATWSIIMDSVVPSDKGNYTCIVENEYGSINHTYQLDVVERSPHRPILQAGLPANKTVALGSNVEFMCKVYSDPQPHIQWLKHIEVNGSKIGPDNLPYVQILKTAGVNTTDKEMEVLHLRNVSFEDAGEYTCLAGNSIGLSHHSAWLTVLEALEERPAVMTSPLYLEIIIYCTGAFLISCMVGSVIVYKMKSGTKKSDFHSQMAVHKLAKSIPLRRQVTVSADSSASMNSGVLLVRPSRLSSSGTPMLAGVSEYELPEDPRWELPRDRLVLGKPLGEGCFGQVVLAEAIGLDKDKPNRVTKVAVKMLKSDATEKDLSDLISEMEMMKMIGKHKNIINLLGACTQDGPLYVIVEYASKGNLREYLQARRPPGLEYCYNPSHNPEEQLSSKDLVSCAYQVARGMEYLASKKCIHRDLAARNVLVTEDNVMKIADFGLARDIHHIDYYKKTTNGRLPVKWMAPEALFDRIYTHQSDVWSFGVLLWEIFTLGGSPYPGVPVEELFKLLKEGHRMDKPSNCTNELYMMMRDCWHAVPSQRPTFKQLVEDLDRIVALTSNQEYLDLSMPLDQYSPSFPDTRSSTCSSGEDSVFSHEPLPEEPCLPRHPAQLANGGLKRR
- test details: Inhibition of FGFR1 (unknown origin) assessed as residual enzyme activity at 10 uM using IGF-IRtide (12 to 527) substrate
Property: Activity; scope: individual compounds

{"compound": "CCCCCOc1ccc(C2C(C(=O)c3ccc4c(c3)OCCO4)=C(O)C(=O)N2c2nc3ccc(C)cc3s2)cc1 (centres undefined)", "Activity": "25.5%"}
{"compound": "CCCOc1ccc(C2C(C(=O)c3ccc4c(c3)OCCO4)=C(O)C(=O)N2c2nc3ccc(C)cc3s2)cc1 (centres undefined)", "Activity": "22.6%"}
{"compound": "CCCCOc1ccc(C2C(C(=O)c3ccc4c(c3)OCCO4)=C(O)C(=O)N2c2nc3ccc(C)cc3s2)cc1 (centres undefined)", "Activity": "58.1%"}
{"compound": "CCOc1ccc2nc(N3C(=O)C(O)=C(C(=O)c4ccc(C)cc4)C3c3ccc(C(C)(C)C)cc3)sc2c1 (centres undefined)", "Activity": "40.3%"}
{"compound": "CC(C)(C)c1ccc(C2C(C(=O)c3ccc4c(c3)OCCO4)=C(O)C(=O)N2c2nc3ccc(Cl)cc3s2)cc1 (centres undefined)", "Activity": "46.8%"}
{"compound": "CCCCCOc1ccc(C2C(C(=O)c3ccc4c(c3)CC(C)O4)=C(O)C(=O)N2c2nc3ccc(F)cc3s2)cc1 (centres undefined)", "Activity": "26.9%"}
{"compound": "O=C(C1=C(O)C(=O)N(c2nc3ccc(F)cc3s2)C1c1cccc(Cl)c1)c1cccs1 (centres undefined)", "Activity": "74.4%"}
{"compound": "CCCCOc1ccc(C2C(C(=O)c3ccc4c(c3)OCCO4)=C(O)C(=O)N2c2nc3ccc(Cl)cc3s2)cc1OCC (centres undefined)", "Activity": "18%"}
{"compound": "CC(C)CCOc1cccc(C2C(C(=O)c3ccc4c(c3)CC(C)O4)=C(O)C(=O)N2c2nc3ccc(F)cc3s2)c1 (centres undefined)", "Activity": "100%"}

This collection of values is drawn from ChEMBL document CHEMBL3400130.
